The measured values listed here are drawn from paper PMC12494831.

Target: α-amylase (EC.3.2.1.1) (Homo sapiens)
Assay: In vitro α-amylase inhibition (starch/DNS, 540 nm)
Assay type: biochemical
Conditions: 6 µg
Method: α-Amylase enzyme and other chemical reagents are used for enzyme inhibitory activity. The characterized compounds are diluted in an analytical grad solvent (DMSO) system at 1 mg/mL solution concentration. The activity reaction of the synthesized analogues on the enzyme was treated at final concentrations of 2 to 10 µg. […] The enzyme-receptor inhibition efficiency was calculated and compared with the positive control. […]
The reader will find reported α-Amylase Inhibition % values listed item by item below.
Response body: numeric value in %, unit text excluded.

Param item = O=C(Nc1ccc2c(c1)OCO2)c1cccnc1 [Compound 2j, N-(Benzo[1,3]dioxol-5-yl)nicotinamide] ; retrieve measured α-Amylase Inhibition %.
74.67

Next:
May I ask what α-Amylase Inhibition % has been recorded for O=C(Oc1ccc2c(c1)OCO2)c1cccnc1 [Compound 2h, Benzo[1,3]dioxol-5-yl nicotinate] ?
72.47

Entry under review: COc1cc(C(C)=O)ccc1OC(=O)c1cccnc1 [Compound 2i, 4-Acetyl-2-methoxyphenyl nicotinate] . Reported α-Amylase Inhibition %?
74.67

For COC(=O)/C=C/c1ccc(OC(=O)c2cccnc2)c(OC)c1 [Compound 2b] , what is its reported α-Amylase Inhibition %?
77.01

====

Biological target: α-amylase (EC.3.2.1.1) (Homo sapiens)
Assay: In vitro α-amylase inhibition (starch/DNS, 540 nm)
Type: biochemical
Conditions: 2 µg
Experimental: α-Amylase enzyme and other chemical reagents are used for enzyme inhibitory activity. The characterized compounds are diluted in an analytical grad solvent (DMSO) system at 1 mg/mL solution concentration. The activity reaction of the synthesized analogues on the enzyme was treated at final concentrations of 2 to 10 µg. […] The enzyme-receptor inhibition efficiency was calculated and compared with the positive control. […]
Recorded α-Amylase Inhibition % by entry
Lab note: write values as number then unit, every time.

Worked examples follow.
Value lookup for α-Amylase Inhibition %; key = O=C(NCc1ccc2c(c1)OCO2)c1cccnc1
86.09%

Quick one: α-Amylase Inhibition % of O=C(Oc1ccc2c(c1)OCO2)c1cccnc1 [Compound 2h, Benzo[1,3]dioxol-5-yl nicotinate] ?
74.08%

What does the data say about its α-Amylase Inhibition %? Entry: COC(=O)C=Cc1cccc(OC(=O)c2cccnc2)c1
79.2%

---
Fill blank: measured α-Amylase Inhibition % of the compound CCOc1ccc2nc(NC(=O)c3cccnc3)sc2c1 is ____.
74.81%

Name the recorded α-Amylase Inhibition % for COc1cc(C(C)=O)ccc1OC(=O)c1cccnc1 [Compound 2i, 4-Acetyl-2-methoxyphenyl nicotinate] .
77.74%

Param item = COC(=O)C=Cc1ccccc1OC(=O)c1cccnc1 ; retrieve measured α-Amylase Inhibition %.
80.38%

What value of α-Amylase Inhibition % has been reported for the following compound? O=C(Nc1ccc2c(c1)OCO2)c1cccnc1 [Compound 2j, N-(Benzo[1,3]dioxol-5-yl)nicotinamide]
85.94%

What value of α-Amylase Inhibition % has been recorded for this entry: COC(=O)/C=C/c1ccc(OC(=O)c2cccnc2)c(OC)c1
80.52%

// α-Amylase Inhibition % lookup, key: C[C@H]1O[C@H](O[C@H]2[C@H](O)[C@@H](O)[C@@H](O[C@H]3[C@H](O)[C@@H](O)C(O)O[C@@H]3CO)O[C@@H]2CO)[C@H](O)[C@@H](O)[C@@H]1N[C@H]1C=C(CO)[C@@H](O)[C@H](O)[C@H]1O (stereo partly drawn) [Acarbose, reference compound]
85.59%

====

Biological target: α-amylase (EC.3.2.1.1) (Homo sapiens, UniProt P04746)
Sequence (P04746 16-511): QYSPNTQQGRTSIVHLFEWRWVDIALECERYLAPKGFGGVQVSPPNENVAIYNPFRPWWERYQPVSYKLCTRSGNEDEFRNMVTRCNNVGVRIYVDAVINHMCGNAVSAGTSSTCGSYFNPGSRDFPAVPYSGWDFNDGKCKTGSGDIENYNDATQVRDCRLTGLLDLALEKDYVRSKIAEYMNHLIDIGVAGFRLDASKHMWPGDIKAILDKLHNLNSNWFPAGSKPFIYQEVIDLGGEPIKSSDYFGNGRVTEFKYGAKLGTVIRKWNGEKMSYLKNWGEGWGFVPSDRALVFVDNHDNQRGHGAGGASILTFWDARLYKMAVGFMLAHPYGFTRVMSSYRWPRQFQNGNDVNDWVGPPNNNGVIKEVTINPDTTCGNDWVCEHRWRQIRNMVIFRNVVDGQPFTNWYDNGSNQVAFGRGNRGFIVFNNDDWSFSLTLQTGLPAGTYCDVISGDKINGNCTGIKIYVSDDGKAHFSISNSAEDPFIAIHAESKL
Test: In vitro α-amylase inhibition (starch/DNS, 540 nm)
Format: biochemical
Settings: test concentrations 2-10 µg; read-out: α-Amylase IC50±SD (converted)
// returns criterion not met unless IC50 is strictly below 5 µM, in which case criterion met

Would you please look over these solved cases?
Decide: IC50 of COC(=O)/C=C/c1ccc(OC(=O)c2cccnc2)c(OC)c1 [Compound 2b] strictly below 5 µM?
criterion met

Determine whether this compound shows IC50 lower than 5 µM (ties excluded): COc1cc(C(C)=O)ccc1OC(=O)c1cccnc1 [Compound 2i, 4-Acetyl-2-methoxyphenyl nicotinate]
criterion not met

Field: below-cutoff. Rule: recorded IC50 strictly less than 5 µM. Subject: O=C(Nc1ccc2c(c1)OCO2)c1cccnc1 [Compound 2j, N-(Benzo[1,3]dioxol-5-yl)nicotinamide]
criterion not met

hey, is IC50 for O=C(Oc1ccc2c(c1)OCO2)c1cccnc1 [Compound 2h, Benzo[1,3]dioxol-5-yl nicotinate] lower than 5 µM or not?
criterion not met

Say whether its IC50 is strictly beneath 5 µM. Entry: COC(=O)C=Cc1cccc(OC(=O)c2cccnc2)c1 [Compound 2f]
criterion met

State whether 5 µM exceeds IC50 recorded for COC(=O)C=Cc1ccccc1OC(=O)c1cccnc1 [Compound 2g] .
criterion met

Then this compound:
Would you kindly verify if IC50 of O=C(NCc1ccc2c(c1)OCO2)c1cccnc1 [Compound 2e] is strictly less than 5 µM?
criterion not met

====

Tested on: human RBC
Assay: Anti-inflammatory activity: hypotonic solution-induced human RBC hemolysis (560 nm)
Assay type: cell-based
Settings: 40 µM
Protocol: All synthesized compounds are validated in human RBC (blood sample); the blood sample was collected from a healthy volunteer in an EDTA tube. The EDTA tube further proceeded with centrifugation at 3000 rpm for 30 min. […] Employing coagulated RBC and generated human erythrocyte hemolysis, the anti-inflammatory activity and potential of the synthesized entities were evaluated. […] The final supernatant liquid solution was measured at 560 nm using a UV-visible spectrophotometer.3 [drawing 3]
measured_property: inhibition at 40 µM (%)
The response must be a number in % with no trailing unit.

Field request: inhibition at 40 µM | item: COc1cc(C(C)=O)ccc1OC(=O)c1cccnc1 [Compound 2i, 4-Acetyl-2-methoxyphenyl nicotinate]
25.3

GET /values?readout=inhibition at 40 µM&item= O=C(c1ccccc1)c1ccc2n1CCC2C(=O)O (centres unmarked) [Ketorolac, reference compound]
92

Give the measured inhibition at 40 µM of COC(=O)C=Cc1ccccc1OC(=O)c1cccnc1 [Compound 2g] .
80.2

Tell me the measured inhibition at 40 µM of O=C(NCc1ccc2c(c1)OCO2)c1cccnc1 [Compound 2e] , please.
42.8

Report inhibition at 40 µM for O=C(Oc1ccc2c(c1)OCO2)c1cccnc1 [Compound 2h, Benzo[1,3]dioxol-5-yl nicotinate] please.
63

Please report the recorded inhibition at 40 µM for COC(=O)C=Cc1cccc(OC(=O)c2cccnc2)c1 [Compound 2f] .
37

Let's switch to this molecule now.
Would you mind telling me what inhibition at 40 µM value was observed for COC(=O)/C=C/c1ccc(OC)c(OC(=O)c2cccnc2)c1 [Compound 2c] ?
52.9

====

Experiment: DPPH radical scavenging (517 nm)
Settings: 100 µM
# binarize DPPH Inhibition %: threshold 60% inclusive, high side 1, low side -1

Textbook exercise: given the entry COC(=O)/C=C/c1ccc(OC(=O)c2cccnc2)c(OC)c1 , state whether its DPPH Inhibition % is greater than or equal to 60%.
1

DPPH Inhibition % >= 60% for COC(=O)C=Cc1cccc(OC(=O)c2cccnc2)c1 ?
-1

hey, is DPPH Inhibition % for this one >= 60%? COc1cc(C(C)=O)ccc1OC(=O)c1cccnc1 [Compound 2i, 4-Acetyl-2-methoxyphenyl nicotinate]
-1

***
Does DPPH Inhibition % meet or surpass 60% for O=C1O[C@H]([C@@H](O)CO)C(O)=C1O [Ascorbic acid, reference compound] ?
1

Could you tell me if the measured DPPH Inhibition % of COC(=O)C=Cc1cc(OC)c(OC(=O)c2cccnc2)c(OC)c1 reaches 60% or more?
1

====

Form field: α-Amylase Inhibition % (one value per entry).
Target: α-amylase (EC.3.2.1.1) (Homo sapiens, UniProt P04746)
Assay: In vitro α-amylase inhibition (starch/DNS, 540 nm)
Type: biochemical
Conditions: 10 µg
Provide the reading as a plain figure in %.

Record COC(=O)/C=C/c1ccc(OC(=O)c2cccnc2)c(OC)c1 [Compound 2b] : what is its α-Amylase Inhibition % with α-amylase (EC.3.2.1.1) (Homo sapiens, UniProt P04746)?
54.9

====

Assay: DPPH radical scavenging (517 nm)
Conditions: 80 µM
measured_property: DPPH Inhibition %

Requested read-out: DPPH Inhibition %. Entry: COC(=O)/C=C/c1ccc(OC(=O)c2cccnc2)c(OC)c1 [Compound 2b]
88%

Which value of DPPH Inhibition % has been reported for O=C(Oc1ccc2c(c1)OCO2)c1cccnc1 [Compound 2h, Benzo[1,3]dioxol-5-yl nicotinate] in the records?
87.2%

Dear colleague, I am looking for the recorded DPPH Inhibition % of the following molecule: COC(=O)C=Cc1cccc(OC(=O)c2cccnc2)c1 [Compound 2f]
43.18%

# DPPH Inhibition % lookup, item COC(=O)/C=C/c1ccc(OC)c(OC(=O)c2cccnc2)c1 [Compound 2c]
48%

Let us examine a further case.
For the molecule shown here, O=C(Nc1ccc2c(c1)OCO2)c1cccnc1 [Compound 2j, N-(Benzo[1,3]dioxol-5-yl)nicotinamide] , give the reported DPPH Inhibition %.
46%
